Data provenance: patent US20260028354A1

target: ER (Homo sapiens (Human), UniProt P03372); experiment: In-cell western blot analysis of ER for "B" compounds; assay type: cell-based; conditions: 16 hours, read-out: ICW DC50
Sequence (P03372 whole entry): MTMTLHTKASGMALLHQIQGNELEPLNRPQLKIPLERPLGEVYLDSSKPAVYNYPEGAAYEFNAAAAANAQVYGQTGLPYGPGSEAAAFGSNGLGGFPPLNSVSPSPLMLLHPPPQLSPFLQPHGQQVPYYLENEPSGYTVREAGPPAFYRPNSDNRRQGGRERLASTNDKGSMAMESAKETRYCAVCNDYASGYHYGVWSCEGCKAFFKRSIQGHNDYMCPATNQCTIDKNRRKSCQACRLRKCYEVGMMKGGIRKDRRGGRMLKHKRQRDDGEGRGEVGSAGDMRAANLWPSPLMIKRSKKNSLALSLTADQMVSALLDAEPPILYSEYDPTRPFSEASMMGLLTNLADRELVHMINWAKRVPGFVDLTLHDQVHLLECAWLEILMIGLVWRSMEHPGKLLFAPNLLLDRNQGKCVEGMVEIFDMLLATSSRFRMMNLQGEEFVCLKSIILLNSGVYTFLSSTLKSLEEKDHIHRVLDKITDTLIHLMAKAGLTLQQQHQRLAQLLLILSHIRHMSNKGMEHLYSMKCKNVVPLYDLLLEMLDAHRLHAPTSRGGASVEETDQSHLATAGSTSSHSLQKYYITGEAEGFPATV
Reported DC50 values for a set of compounds
VALUE KIND: DC50

INSERT INTO measurements (compound, test_value) VALUES
  ('O=C1CCC(N2Cc3c(ccc4c3OC[C@H]3CN(CC5COC6(CN(c7ccc([C@@H]8c9ccc(O)cc9CC[C@@H]8c8ccccc8)cc7)C6)OC5)CCN43)C2=O)C(=O)N1 (stereo partly drawn)', '10 to 100 nM'),
  ('O=C1CCC(N2Cc3cc4c(cc3C2=O)CN(CC2COC3(CCN(c5ccc([C@@H]6c7ccc(O)cc7CC[C@@H]6c6ccccc6)cc5)CC3)C2)C4)C(=O)N1 (stereo partly drawn)', '10 to 100 nM'),
  ('O=C1CCC(N2Cc3c(ccc4c3OCC43CCN(CC4CC5(CCN(c6ccc([C@@H]7c8ccc(O)cc8CC[C@@H]7c7ccccc7)cc6)CC5)C4)CC3)C2=O)C(=O)N1 (stereo partly drawn)', '10 to 100 nM');
